Cited source for all entries: paper PMC3140635

# SYSTEM UNDER TEST: the molecule itself
# TEST NAME: steric trap, PE/PG/PC
ATTRIBUTE MEASURED: Kd (nM)
Entry rule: numbers only, all in nM.

Field request: Kd | item: Glycophorin A TM domain (SNGpATM) TMD (protein) GERVQLAHHFSEPEITLIIFGVMAGVIGTILLISYGIRRLIKKSPSDVKPLPSPDTDVPLSSVEIENPETSDQ
5.1
